Attribution: patent US6218378A

# Test system: MM96
# Assay Details: cell survival after drug treatment ([methyl-3H]-thymidine)
# Format: cell-based, human
# Condition Description: MM96L; mean ± SD or individual values when n<3; 5-7 days
Recorded IC50, one value per entry.

[
  {
    "Compound": "[Cl-].[Cl-].c1ccc([P+]2(c3ccccn3)CC[P+](c3ccccn3)(c3ccccn3)[Au-3]23[P+](c2ccccn2)(c2ccccn2)CC[P+](c2ccccn2)(c2ccccn2)[Au-3]2([P+](c4ccccn4)(c4ccccn4)CC[P+]2(c2ccccn2)c2ccccn2)[P+](c2ccccn2)(c2ccccn2)CC[P+]3(c2ccccn2)c2ccccn2)nc1 [[Au2 (d2pype)4]Cl2]",
    "IC50": "0.09 µM"
  },
  {
    "Compound": "[Au+].[Au+].[Cl-].[Cl-].c1cncc(P(CCP(c2cccnc2)c2cccnc2)c2cccnc2)c1.c1cncc(P(CCP(c2cccnc2)c2cccnc2)c2cccnc2)c1 [[Au2 (d3pype)2 Cl2]]",
    "IC50": "56 µM"
  },
  {
    "Compound": "[Cl-].c1cc([P+]2(c3ccncc3)CC[P+](c3ccncc3)(c3ccncc3)[Au-3]23[P+](c2ccncc2)(c2ccncc2)CC[P+]3(c2ccncc2)c2ccncc2)ccn1 [[Au(d4pype)2]Cl]",
    "IC50": "> 10 µM"
  }
]
